- Test system: K4 kissing-loop RNA reporter
- Experimental Protocol: apparent KD of K4 kissing-loop reporter; higher = weaker reporter binding
- Reported Conditions: Eterna round: R107; input ligand: tryptophan 2.4 mM
# apparent KD of K4 kissing-loop reporter annotations
The reply should be a number in nM, with the unit left off.

// below: answered sequences
UUAUAUACGAGUGAUGUUCGUUAUUUAUCAGAGGAUAUGCUUAAAUGCAGAAGGCUGUUUUUCUAUUUGAUAUUAAAUUUUAUAA [JR_Nu3_ExcFMNA_Sub027]
58.1
AAUAUCUAGUAUAUUUUUAAUAAAACAGAUACCAGUGAUAAUAGACACCCUUGGCAGCUGGUCGAGUGAUGUUCGUUUAUUUUAA [JR_SSTheophyA_Sub005]
60
AAACGUUGGUGCGAUACCAGCUGAUCGGAAACGAUCUUGCUGGAGUGAUGUUCCAGGAAAAGCCCUUGGCAGCGCACCGACGAAA [MAT - Same State Theophlline B - Mod of Eli - D26]
928
UGACAUUGCUCAGAUACCAGACAUGAGCAUCAGCCAUGUGCCAAAUAAACGUACAUAAAUGUCCCUUGGCAGCUGAGCAAUGUCU [TheoBX 11]
64.9
AAGGCAUUCAGAAGGAGCGUGGUUUAAUCAUUAAUAUUUUUUACGAGUGAUGUUCGUAAUUCACAGGUAGGUCGCUGAAUAAUAA [JR_ExcArginiB_Sub008]
114

Reported apparent KD of K4 kissing-loop reporter for GGGAGGAGUGGUGUUGAUUAGGGAGCGGAAGGAGCGCCGAGGAAGGCAGGUAGGUCGCCGGAUUAUAGUGAUGUUAUGAAGAGGG [ExArg.J] was 577

Reported apparent KD of K4 kissing-loop reporter for GGAUCCACCAGUGAUGUUGGAGAAAACUCCAAGGAUAUGACGAAAGUCAGAAGGUGGUAGACUGGACAAAGUCCGGUGGGAUCCA [FmnA10 G78] was 88.7

Reported apparent KD of K4 kissing-loop reporter for CCUUCUCUUGAUAGUGAUGUUAUCAAGGGCAAGGAUAUCAUCUCAAUGAGAAGGUGUCCUUGAUAACAUGGAGGUCUGAAACAGA [Omei KL FMN A Exc C v4] was 206

Reported apparent KD of K4 kissing-loop reporter for AAAAUAAAUCAGUGAUGUUGGUAUCUGGAUACCAGCGAUAAUCAUCGCCCUUGGCAGCCAUGGACGUACAAAAUAAGUACGUCCU [MatMod 17 - Jieux - Same State - Theophylline A] was 193

Reported apparent KD of K4 kissing-loop reporter for UGAUAGGACAGAAGGAGCGGAAGUGAUGUUUCCAAAAGGAAAGGUCGACAAAGUCGACCCUUCCAGGUAGGUCGCUGUCCUAUCU [ArgBX 8 #Palindromic #SwitchBubble #StaticStem] was 81.5

----------
- Tested on: K4 kissing-loop RNA reporter
- Experimental Protocol: apparent KD of K4 kissing-loop reporter; higher = weaker reporter binding
- Reported Conditions: Eterna round: R107; input ligand: arginine 13.2 mM
# apparent KD of K4 kissing-loop reporter annotations
The reply should be a number in nM, with the unit left off.

// below: answered sequences
UACUUAUUUUUUAACUUAAAUUUUUCAGAAGGAGCGUGAUCAUUCACAGGUAGGUCGCUGAACUAGUGAUGUUAGUUUUAAUUUU [JR_Nu_ExcArginiA_Sub024]
115
CAACGAGUGAUGGUCGUUGACGGCCAUCCCGAGGAUAUGGGAUUAUCCAGAAGGCGGGAUCGCCGGGAGUGAUGUUCCCUGAUCA [Same State FMN A GF 14]
181

Reported apparent KD of K4 kissing-loop reporter for UGUCAUUGGUCGGCCGCCACUUUGUAUGGAGUGAUGUUUUGUAGAUUGUGUUGAAAGGUGUGGUGAAGGACCGGGACCGAUGACU [FiskerMod 24 - Jieux - Same State - Tryptophan B] was 652

----------
# apparent KD of K4 kissing-loop reporter annotations
- System: K4 kissing-loop RNA reporter
- Experimental Protocol: apparent KD of K4 kissing-loop reporter; higher = weaker reporter binding
- Reported Conditions: Eterna round: R107; input ligand: none
Mention the unit after the number when you answer.

// below: answered sequences
UAAGAUUCUGUCUCAUUGAGACAGAAUCAACGAGGACCGGUACGGCCGCCACUCGGGUCCUAGAGUGAUGUUCUAAUAAUAUAAU [AK1 SS Tryptophan A]
296 nM
CAGCCUGGUCAGUGAUGUUGGCCGCAGGGAAAGGAUAUUGUGUUGGCAAGAAGGUUCGCUUGAUCGUUGGCCCAUGCAUGGGCCU [theeternabot_sameState_KL_FMN_A_44]
197 nM
GGACCUCAGUGAUGUUGAGGUAACGCUGAUACCAGUGACUUAAUUCGCCCUUGGCAGCAGUCCACCGAGGUAUCUGAUUAGGUCU [Default title]
149 nM
GAUAUAUAGACGGCCGCCACUUAUAAAUUUCAGUGAUGUUGAAAUGUUAAAUAACGAACACAAUAGAGGACCGGGUCAAAUAUCG [Same State Tryptophan B GF 2]
190 nM
CGUUUAUAGCAGGAUACCAGUACCCAUAAAGUACGUUAAUAGUAGAGUGAUGUUCUAAAGUACCCUUGGCAGCUUCCCGUGACCG [ExTheophylB.V]
129 nM

Reported apparent KD of K4 kissing-loop reporter for ACGCGCGAGACGGCCGCCACUAUACGUCGAGUGAUGUUCGAGCCAAGAUGUCGUUACGUUUAUAAUAGGACCGGGUCAAUGGAUU [theeternabot_sameState_KL_Trp_B_19] was 583 nM

Reported apparent KD of K4 kissing-loop reporter for AAUCAAUACAGAAGGAGCGUGACAGUUGCGAGUGUAAUUUUAGCUAGUGAUGUUAGCAUUUCACAGGUAGGUCGCUGUACAUUUA [#05 K4 Arginine B Same State] was 133 nM

Reported apparent KD of K4 kissing-loop reporter for UGUGCUGUGUAGUGUAAUGUUAUGCGGGAUACCAGAGUCUUUUUAUUCCCUUGGCAGCUUGAGUGAUGUUUGAUGCUGUUCUUGU [uujmullin] was 350 nM

Reported apparent KD of K4 kissing-loop reporter for CCCAAGGGCCUACCGGUAUGAUGGACGGAUACCAGAGGCGAAAGCCUCCCUUGGCAGCCGGGUGUAGUGAUGUUACUCCGGUAGU was 75 nM

Reported apparent KD of K4 kissing-loop reporter for UGACUGGACUGAAGGAGCGCGCGAGACAAAGUCUCGAACUGGUAGUGAUGUUAUCAAAUAACGCAGGUAGGUCGCAGUCUAGUCU [ArgBS 12 #SwitchBubble #StaticStem] was 255 nM

----------
- System: K4 kissing-loop RNA reporter
- Experimental Protocol: apparent KD of K4 kissing-loop reporter; higher = weaker reporter binding
- Reported Conditions: Eterna round: R107; input ligand: theophylline 20 uM
Classification field: enter 1 for apparent KD of K4 kissing-loop reporter values not below 0.6 µM, -1 for values below it.

CAUAGACAAGUGAUGUUUGUCAUAACCGAAGGAGCGUCGUUGAAGACAGGUAGGUCGCGGAUUAAUUAAGAUUAUAUUCUUUUUA [JR_SSArginiA_Sub019]
1

Req: Item GGUGUUGUUUGUGCCGCCUUCCUCGUUCCUCGAGGACCGGUACGGCCGCCACUCGAGUGAUGUUUGGGUAGCGAUCCCUGCUAGU [Bdazzled - #12 Exc. Tryptophan A] with apparent KD of K4 kissing-loop reporter of 0.6 µM or above?
Resp: 1

Req: Item AGGUGAGAGUGAAGGAGCGAUCGCGCCAGUGAUGUUGGUGAGCAUGACGAAAGUCAUGCCGAUCAGGUAGGUCGCACUCUUACUC [Omei KL Arginine B SS B v3] with apparent KD of K4 kissing-loop reporter of 0.6 µM or above?
Resp: -1

Req: Item AGUGAUGUUUCUUUUAAGAGUGAUGUUUUUCGAGGACCGGUACGGCCGCCACUCGAGUGAUGAGUGCGUUGUUGUGAUGUUUAGU [#12 K4 Tryptophan A Exclusion] with apparent KD of K4 kissing-loop reporter of 0.6 µM or above?
Resp: -1

----------
- Tested on: K4 kissing-loop RNA reporter;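 note: bound reporter read as fluorescence of individual clusters on recovered sequencing chips by microscopy, with normalized cluster intensities fitted with a binding model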
- Experimental Protocol: apparent KD of K4 kissing-loop reporter; higher = weaker reporter binding
- Reported Conditions: Eterna round: R107; input ligand: none
Assay Readout: apparent KD of K4 kissing-loop reporter

GACCGGCCGACGAGUGAUGUUCGAUGGGAAGGAGCGCGAAGAAAUGCAGGUAGGUCGCCCUAAGUAAUUGAAACGGCCGGAUUAU [2.)]
128 nM
CAAAUGUUGUCAGGAUAUGAGCGCAGUGAUGUUGCGGUUGUAUUUAUGACUGGAGCAGCGUAAGCCUCAGAAGGGACAAGUUGCC [Qubioran]
106 nM
UAACUUGCAGUGAUGUUGCAAGAACUGGAUACCAGCAUGGAAACAUGCCCUUGGCAGCCAGAAGGUAUCCUACAUCACAGAUACU [Design2]
214 nM
UUUUUUAGUUGAGUUAUACAUAGCGGACUAUAGGAUAUCUAGAAAUAGAGAAGGAUAAGAGUGAUGUUCUUAUUCAACUAUAGUG
90.9 nM
GGCUUACUAGUGAUGUUAGUAUUUUCUGAAGGAGCGCGUGAAAACGCAGGUAGGUCGCAGAACCUUGCCAACUAUUUUAGUUGCC [Ex Arginine A K4 28]
115 nM

Reported apparent KD of K4 kissing-loop reporter for GGGAGGAGUGGUGUUGAUUAGGGAGCGGAAGGAGCGCCGAGGAAGGCAGGUAGGUCGCCGGAUUAUAGUGAUGUUAUGAAGAGGG [ExArg.J] was 679 nM

Reported apparent KD of K4 kissing-loop reporter for UGUCAUGGAAACAUGAACGUUGAAAUAAGACGAGGACCGGUACGGCCGCCACUCGAAUAAUGGUCAGUGAUGUUGACUGGAAUAA [KL-SSTryp-A form1 sub7 #dotplot2>1] was 70.3 nM

Reported apparent KD of K4 kissing-loop reporter for ACGGAUACGCGAGAUACCAGAGGCAUUCGCCAGCGACCAUAAUGUCCCGAGAGUGAUGUUCUCCCUUGGCAGCUCAUGGUUAAUU [theeternabot_exclusion_KL_Theo_B_2] was 468 nM

Reported apparent KD of K4 kissing-loop reporter for CGCCGAAAGGCGAGCGCUCCCACUCCGGAAGGAGCGCCCGAAAGGGCAGGUAGGUCGCCGGAGUGAUGUUCCGGUGGAGGGCUCG [#2 Exclusion - Arginine A Attempt #30 (Inspired by Omei)] was 817 nM

Reported apparent KD of K4 kissing-loop reporter for GAACGAGUGAUGUUCGUUAUUAUGCAUUCCGAGGAUAUGGGAUUAGCCAGAAGGCGGAAUCAAUCUUCGAGUGAUGUUCGAAGAU [Same State FMN A GF 11] was 142 nM

Reported apparent KD of K4 kissing-loop reporter for GGCGGCCGCGCGCAAGCGCGGCCGGCCGAUACCAGCGCGACGGCGCGCCCUUGGCAGCGGCGCCGAGUGAUGUUCGGCCUGCCGG [#2 Same State - Theophylline A Attempt #16 (HarryS)] was 585 nM
